Tested on: Klebsiella pneumoniae ATCC 700603
Method description: Study 4 - MIC by broth micro-dilution (CLSI)
Format: cell-based
Details: Klebsiella pneumoniae, ATCC700603
Reported metric: MIC (µg/mL)
One number for each entry, in µg/mL.

Consider the reported MIC for these compounds:
CC(C)CC(N)C(=O)N[S+]([O-])c1cccc(Cl)c1 (centres unmarked) [4.12]: 4
CNc1cccc([S+]([O-])NC(=O)C(N)CC(C)C)c1 (centres unmarked) [4.22]: 64

Note: attention shifts to another entry.
Input: For CC(C)CC(N)C(=O)N[S+]([O-])c1cccc2ccccc12 (centres unmarked) [4.39] , write its MIC.
Output: 64

====

Experimental system: E. Coli LeuRS (Escherichia coli (strain K12), UniProt P07813)
Sequence (P07813 whole entry): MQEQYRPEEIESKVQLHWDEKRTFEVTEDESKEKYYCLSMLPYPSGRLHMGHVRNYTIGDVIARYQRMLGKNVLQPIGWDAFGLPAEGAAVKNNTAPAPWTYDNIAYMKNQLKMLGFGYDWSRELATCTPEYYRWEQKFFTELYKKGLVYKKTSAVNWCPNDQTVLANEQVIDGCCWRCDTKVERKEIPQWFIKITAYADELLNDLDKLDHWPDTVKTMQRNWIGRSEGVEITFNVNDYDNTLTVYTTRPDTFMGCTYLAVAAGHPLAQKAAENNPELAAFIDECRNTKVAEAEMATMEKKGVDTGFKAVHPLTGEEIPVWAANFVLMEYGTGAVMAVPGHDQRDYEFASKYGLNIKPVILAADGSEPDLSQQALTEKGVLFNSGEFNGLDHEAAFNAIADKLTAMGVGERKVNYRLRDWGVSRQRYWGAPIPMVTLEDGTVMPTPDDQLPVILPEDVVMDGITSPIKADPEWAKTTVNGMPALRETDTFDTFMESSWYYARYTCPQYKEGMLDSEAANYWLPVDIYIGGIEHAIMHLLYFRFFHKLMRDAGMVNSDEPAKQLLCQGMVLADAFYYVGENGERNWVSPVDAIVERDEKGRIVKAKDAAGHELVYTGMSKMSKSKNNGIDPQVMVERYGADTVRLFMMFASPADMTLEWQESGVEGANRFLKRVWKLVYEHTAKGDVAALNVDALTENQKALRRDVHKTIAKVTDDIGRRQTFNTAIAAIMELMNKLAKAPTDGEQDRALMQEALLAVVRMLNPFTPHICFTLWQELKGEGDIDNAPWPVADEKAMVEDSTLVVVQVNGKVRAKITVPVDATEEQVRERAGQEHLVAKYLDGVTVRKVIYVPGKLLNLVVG
Method description: Study 2 - Isothermal titration calorimetry (ITC)
Details: 25° C., pH 7.5, mean ± SD
So I've got a bunch of compounds here, and I need their Kd values.
Numbers only, in nM.

# example entries with known answers
CC(C)CC(N)C(=O)N[S+]([O-])c1cccc(F)c1 (stereo not shown): 2.17
CC(C)CC(N)C(=O)N[S+]([O-])c1cccc(F)c1F (stereo not shown): 288
CC(C)CC(N)C(=O)N[S+]([O-])c1cc(F)cc(F)c1 (stereo not shown): 16.4
COc1cccc([S+]([O-])NC(=O)C(N)CC(C)C)c1 (stereo not shown): 4.02
CC(C)CC(N)C(=O)N[S+]([O-])c1cccc(OC(F)(F)F)c1 (stereo not shown): 1.39

State recorded Kd for all listed compounds.
1. CC(C)C[C@H](N)C(=O)N[S@@+]([O-])c1ccccc1 (single isomer, unassigned)
2. CC(C)C[C@H](N)C(=O)N[S@+]([O-])c1cccc(Cl)c1
3. CC(C)CC(N)C(=O)N[S+]([O-])c1cccc(-c2ccccc2)c1 (stereo not shown)
4. CC(C)CC(C)(N)C(=O)N[S+]([O-])c1ccccc1 (stereo not shown)

Output:
9130
1.48
4.47
1820

Input: // Input: COC(=O)c1cccc([S+]([O-])NC(=O)C(N)CC(C)C)c1 (stereo not shown) . Output its Kd only.
Output: 6.61

====

Experimental system: E. Coli LeuRS (Escherichia coli (strain K12), UniProt P07813)
Method description: Study 2 - Isothermal titration calorimetry (ITC)
Assay type: binding
Details: 25° C., pH 7.5, mean ± SD
Reported metric: ΔH (kcal/mol)
Numbers only, in kcal/mol.

CC(C)CC(N)C(=O)N[S+]([O-])c1cccc(F)c1F (stereo not shown) [4.34]: -9.90

Give measured ΔH for every item shown.
1. CC(C)CC(N)C(=O)N[S+]([O-])c1cccc(OC(F)(F)F)c1 (stereo not shown) [4.20]
2. CCCC(N)C(=O)N[S+]([O-])c1ccccc1 (stereo not shown) [4.4]
3. CC(C)CC(N)C(=O)N[S+]([O-])c1ccccc1Cl (stereo not shown) [4.32]

Output:
-11.64
-9.06
-10.62

====

Experimental system: E. Coli LeuRS (Escherichia coli (strain K12), UniProt P07813)
Method description: Study 2 - Isothermal titration calorimetry (ITC)
Type: binding
Details: 25° C., pH 7.5, mean ± SD
Lab note: compare ΔG with -10 kcal/mol, writing TRUE if less and FALSE if equal or more.

The following compounds have reported results that may help.
C#Cc1cccc([S+]([O-])NC(=O)C(N)CC(C)C)c1 (centres unmarked): TRUE
CC(C)C[C@H](N)C(=O)N[S@+]([O-])c1ccccc1 (single isomer, unassigned) [R-4.1, 2,2,2-trifluoroacetate]: TRUE
CC(C)CC(N)C(=O)N[S+]([O-])c1cccc(F)c1 (centres unmarked): TRUE

Input: In the record for CC(C)CC(N)C(=O)N[S+]([O-])c1ccccc1F (centres unmarked) , is ΔG less than -10 kcal/mol?
Output: TRUE

Input: Hello, is ΔG of the following compound strictly smaller than -10 kcal/mol? Cc1cccc([S+]([O-])NC(=O)C(N)CC(C)C)c1 (centres unmarked)
Output: TRUE

Input: Quick check: ΔG of CC(C)CC(N)C(=O)N[S+]([O-])c1cccc(F)c1F (centres unmarked) under -10 kcal/mol?
Output: FALSE

====

Provide the recorded MIC for the entries that follow.
Tested on: Haemophilus influenzae ATCC 49247
Method description: Study 4 - MIC by broth micro-dilution (CLSI)
Type: cell-based
Details: Haemophilus influenzae, ATCC49247; G = H. influenzae ATCC 49247; read-out: MIC

These recorded examples may help you get a feel for the data.
COC(=O)c1cccc([S+]([O-])NC(=O)C(N)CC(C)C)c1 (stereo not shown) [4.21]: > 64 µg/mL
CC(C)C[C@H](N)C(=O)N[S@@+]([O-])c1ccccc1 (single isomer, unassigned) [S-4.1]: > 64 µg/mL
CC(C)CC(N)C(=O)N[S+]([O-])c1cccc(-c2ccn(C)n2)c1 (stereo not shown) [4.26]: > 64 µg/mL
CC(C)CC(N)C(=O)N[S+]([O-])c1cc(Cl)cc(Cl)c1 (stereo not shown) [4.36]: > 64 µg/mL
CNc1cccc([S+]([O-])NC(=O)C(N)CC(C)C)c1 (stereo not shown) [4.22]: > 64 µg/mL
CC(C)CC(N)C(=O)N[S+]([O-])c1ccc(F)c(Cl)c1 (stereo not shown) [4.37]: 32 µg/mL
CC(C)CC(N)C(=O)N[S+]([O-])c1cc(F)cc(F)c1 (stereo not shown) [4.35]: > 64 µg/mL
Cc1cccc([S+]([O-])NC(=O)C(N)CC(C)C)c1 (stereo not shown) [4.13]: 16 µg/mL
CC(C)CC(N)C(=O)N[S+]([O-])c1ccccc1Cl (stereo not shown) [4.32]: 32 µg/mL
CC(C)CC(N)C(=O)N[S+]([O-])c1ccccc1F (stereo not shown) [4.31]: 8 µg/mL

Each molecule below has a recorded value; state its MIC.
1. CC(C)CC(N)C(=O)N[S+]([O-])c1cccc(-c2ccccc2)c1 (stereo not shown) [4.17]
2. CC(C)CC(N)C(=O)N[S+]([O-])c1cccc(F)c1F (stereo not shown) [4.34]
3. CC(C)CC(N)C(=O)N[S+]([O-])c1cccc(C(F)(F)F)c1 (stereo not shown) [4.18]

Output:
1: > 64 µg/mL; 2: 4 µg/mL; 3: > 64 µg/mL

====

Experimental system: E. Coli LeuRS (Escherichia coli (strain K12), UniProt P07813)
Method description: Study 2 - Isothermal titration calorimetry (ITC)
Details: 25° C., pH 7.5, mean ± SD
Kindly state Kd for each of the entries shown.
Answer format: number, then unit.

C=Cc1cccc([S+]([O-])NC(=O)C(N)CC(C)C)c1 (stereo not shown): 27.2 nM
Cc1cccc([S+]([O-])NC(=O)C(N)CC(C)C)c1 (stereo not shown): 6.62 nM
CC(C)CC(N)C(=O)N[S+]([O-])c1cccc(C#N)c1 (stereo not shown): 3.35 nM

Next up:
Input: Give the observed Kd of C#Cc1cccc([S+]([O-])NC(=O)C(N)CC(C)C)c1 (stereo not shown) for E. Coli LeuRS (Escherichia coli (strain K12), UniProt P07813).
Output: 3.69 nM

====

Experimental system: E. Coli LeuRS (Escherichia coli (strain K12), UniProt P07813)
Method description: Study 2 - Isothermal titration calorimetry (ITC)
Format: binding
Details: 25° C., pH 7.5, mean ± SD
Consider the cut-off -10 kcal/mol. If the recorded ΔG is strictly smaller, the label is 1; if not, the label is 0.

COCc1cccc([S+]([O-])NC(=O)C(N)CC(C)C)c1 (centres unmarked): 1
CC(C)CC(C)(N)C(=O)N[S+]([O-])c1ccccc1 (centres unmarked): 0
CCCC(N)C(=O)N[S+]([O-])c1ccccc1 (centres unmarked): 0

Input: Dear colleague, could you confirm whether ΔG of CC(C)CC(N)C(=O)N[S+]([O-])c1cccc(Br)c1 (centres unmarked) falls below -10 kcal/mol? Thanks.
Output: 1

Input: Dear reviewer, please state whether C=Cc1cccc([S+]([O-])NC(=O)C(N)CC(C)C)c1 (centres unmarked) has ΔG strictly beneath -10 kcal/mol.
Output: 1

Input: Dear reviewer, please state whether CC(C)C[C@H](N)C(=O)N[S@+]([O-])c1cccc(Cl)c1 has ΔG strictly beneath -10 kcal/mol.
Output: 1

Input: Hi there! Is ΔG for CC(C)CC(N)C(=O)N[S+]([O-])c1cccc2ccccc12 (centres unmarked) below -10 kcal/mol, do you know?
Output: 1
